- System: Pseudomonas aeruginosa
- Test description: Potentiation of imipenem-induced antibacterial activity against carbapenem-resistant Pseudomonas aeruginosa 108590 clinical isolate assessed as imipenem MIC at 8 uM by checkerboard assay (reference value: 16 ug/ml)
- Type: functional
Quantity name: MIC
Please answer using the number first and the unit second.

Illustrative cases are given below, each with its answer.
>>> value_observed("NC[C@H]1O[C@H](O[C@H]2[C@H](OCCCCCCCCN3CCCNCCNCCCNCC3)[C@@H](O)[C@H](N)C[C@@H]2N)[C@H](N)C[C@@H]1O.O=C(O)C(F)(F)F.O=C(O)C(F)(F)F.O=C(O)C(F)(F)F.O=C(O)C(F)(F)F.O=C(O)C(F)(F)F.O=C(O)C(F)(F)F.O=C(O)C(F)(F)F.O=C(O)C(F)(F)F")
"16 mg/L"
>>> value_observed("NC[C@H]1O[C@H](O[C@H]2[C@H](OCCCCCCCCN3CCCNCCNCCCNCC3)[C@@H](O[C@H]3O[C@H](CO)[C@@H](O)[C@H](N)[C@H]3O)[C@H](N)C[C@@H]2N)[C@H](N)C[C@@H]1O.O=C(O)C(F)(F)F.O=C(O)C(F)(F)F.O=C(O)C(F)(F)F.O=C(O)C(F)(F)F.O=C(O)C(F)(F)F.O=C(O)C(F)(F)F.O=C(O)C(F)(F)F.O=C(O)C(F)(F)F.O=C(O)C(F)(F)F")
"16 mg/L"

Next item in the queue.
Measured MIC of NC[C@H]1O[C@H](O[C@H]2[C@H](OCCCCc3cn(CCCCO[C@@H]4[C@@H](O)[C@H](N)C[C@H](N)[C@H]4O[C@H]4O[C@H](CN)[C@@H](O)C[C@H]4N)nn3)[C@@H](O)[C@H](N)C[C@@H]2N)[C@H](N)C[C@@H]1O.O=C(O)C(F)(F)F.O=C(O)C(F)(F)F.O=C(O)C(F)(F)F.O=C(O)C(F)(F)F.O=C(O)C(F)(F)F.O=C(O)C(F)(F)F.O=C(O)C(F)(F)F.O=C(O)C(F)(F)F : 8 mg/L

----------
- Test system: Pseudomonas aeruginosa
- Test description: Potentiation of aztreonam-induced antibacterial activity against carbapenem-resistant Pseudomonas aeruginosa 109084 clinical isolate assessed as fold reduction in aztreonam MIC at 8 uM in presence of beta-lactamase inhibitor, avi-bactam
- Assay type: functional
Each entry below carries its reported fold change (FC).
// response body must contain only the number

Guide cases for fold change (FC), answers given:
>>> value_observed("N=C(N)NC[C@H]1O[C@H](O[C@H]2[C@H](OCCCCCCCCCCCCN3CCN(c4cc5c(cc4F)c(=O)c(C(=O)O)cn5C4CC4)CC3)[C@@H](O[C@H]3O[C@H](CO)[C@@H](O)[C@H](NC(=N)N)[C@H]3O)[C@H](NC(=N)N)C[C@@H]2NC(=N)N)[C@H](NC(=N)N)C[C@@H]1O.O=C(O)C(F)(F)F.O=C(O)C(F)(F)F.O=C(O)C(F)(F)F.O=C(O)C(F)(F)F.O=C(O)C(F)(F)F.O=C(O)C(F)(F)F")
16
>>> value_observed("Cl.Cl.Cl.Cl.Cl.NC[C@H]1O[C@H](O[C@H]2[C@H](OCCCCCCCCCCCCN3CCN(c4cc5c(cc4F)c(=O)c(C(=O)O)cn5C4CC4)CC3)[C@@H](O)[C@H](N)C[C@@H]2N)[C@H](N)C[C@@H]1O")
16

Continue with the compound presented below.
The value of fold change (FC) recorded for NC[C@H]1O[C@H](O[C@H]2[C@H](OCCCCCCCCN3CCCNCCNCCCNCC3)[C@@H](O[C@H]3O[C@H](CO)[C@@H](O)[C@H](N)[C@H]3O)[C@H](N)C[C@@H]2N)[C@H](N)C[C@@H]1O.O=C(O)C(F)(F)F.O=C(O)C(F)(F)F.O=C(O)C(F)(F)F.O=C(O)C(F)(F)F.O=C(O)C(F)(F)F.O=C(O)C(F)(F)F.O=C(O)C(F)(F)F.O=C(O)C(F)(F)F.O=C(O)C(F)(F)F when tested on Pseudomonas aeruginosa reads 16
